Cited source for all entries: paper PMC10197133

Field: Ki. Provide a value for each of the compounds that follow.
molecular target: UniProtKB Q9R0C9; experiment: S1R radioligand binding assay, [3H](+)-pentazocine, liver homogenates; set-up: from tissue; host or cells: rat liver homogenate (male Sprague-Dawley); species or system male Sprague-Dawley rats; settings: read-out: Ki (nM) ± SD S1R
Sequence (Q9R0C9 whole entry): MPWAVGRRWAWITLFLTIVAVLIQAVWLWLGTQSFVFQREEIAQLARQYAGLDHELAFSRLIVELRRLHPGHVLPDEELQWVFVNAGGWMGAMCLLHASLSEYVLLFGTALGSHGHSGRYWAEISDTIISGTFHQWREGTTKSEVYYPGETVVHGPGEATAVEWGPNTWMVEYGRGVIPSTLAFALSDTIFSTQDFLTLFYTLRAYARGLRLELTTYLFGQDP
Numbers only, in nM.

Previously resolved entries follow.
c1ccc(CN2CCCC3CN(c4ccccc4)CC32)cc1 (stereo not shown)    254
c1ccc(CCN2CC3(CCN(Cc4ccccc4)CC3)C2)cc1    2.7

I have 2 compounds here; please give me Ki for each one.
1. c1ccc(CCN2CCCC3CN(c4ccccc4)CC32)cc1 (stereo not shown)
2. c1ccc(CCN2CC3(CCN(c4ccccc4)CC3)C2)cc1

Response:
505
28
